# Test system: CSNK1A1L;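 note: KINOMEscan kinase panel screen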
# MEASUREMENT CONDITIONS: concentration: 1 μM, replicates: in singlicate; n = 1
MEASURED METRIC: %Inh (%)
Answers are plain numbers, in %.

Cl.NC(=O)c1cccc(Nc2nccc(Nc3ccc(Oc4cccc(Cl)c4)c(Cl)c3)n2)c1 = 16
Cc1cc(-c2ccc3c(c2)CC[C@@H](N[C@@H](C)c2ccccc2)C3)cnc1N.Cl = 21
Cc1ccccc1-n1cnc2c(N)ncnc21 = 0
Cc1cccc(-c2nc(-c3ccc(S(C)(=O)=O)cc3)sc2-c2ccnc(NCCc3ccccc3)c2)c1 = 0
Cc1ccc(C(=O)Nc2ccc(Nc3ccnc4cc(-c5ccccn5)ccc34)cc2O)cc1.Cl = 0
Cc1ccc(-c2cc(-c3c[nH]nc3-c3ccccn3)ccn2)cc1 = 0
COc1cc2ncnc(Nc3ccc4nc(-c5ccccc5)[nH]c4c3)c2cc1OC.Cl = 0

Here is another compound to look at.
// lookup %Inh for CCCc1ccc(S(=O)(=O)NC2CCN(c3ccnc(Nc4ccc(F)cc4)n3)C2)cc1 (centres unmarked)
0
